system: TK-10 renal; assay: NCI-60 one-dose screen, 48 h (100 = growth as untreated, 0 = no growth, -100 = all killed); settings: 10 µM unless noted
About 83,000 compounds went through this panel and 20% of them were active in at least one assay; those are over-represented in the sample as a whole.
reported_metric: growth (%)
Report the figure in % without appending any unit label.

Recorded growth, per entry:
(Q) What reported growth corresponds to COc1cc(-c2nn(C(=O)NS(=O)(=O)c3ccccc3)cc2-c2ccncc2)ccc1Cl on TK-10 renal?
(A) 83

(Q) And for COc1ccc(-c2ccc(C)n2-c2ccc(-c3nc4cc(Cl)ccc4s3)cc2)cc1 ?
(A) 81.6

(Q) Request: CCOC(=O)C1CCNC(=O)C1=O (stereo unspecified)
(A) 103

(Q) What do you have for CC(C)(C)n1cc(-c2ccnc(NCCNS(=O)(=O)c3ccc(Cl)cc3)c2)c(-c2cccc(O)c2)n1 ?
(A) 108

(Q) Now consider COc1cc(-c2nn(-c3cccc(NC(=O)Nc4ccc(Cl)c(Cl)c4)c3)cc2-c2ccncc2)ccc1Cl .
(A) 10.9

Lab note: next molecule to report on.
(Q) Given the entry Nc1nc(=O)c2ccccc2s1 , what growth was observed with TK-10 renal?
(A) 114

---

tested on: RXF 393 renal; assay: NCI-60 one-dose screen, 48 h; details: 10 µM unless noted
The panel holds about 83,000 compounds, 20% with a hit somewhere; the sample as a whole holds those more often. The source made the active and inactive calls. Rule for the calls: active = growth percent below 10; inactive = the rest.
Choose one outcome from this list and give only that: active, inactive

Reference set (5 entries):
(Q) # lookup: test call for CC1(c2ccc(Cl)cc2)OC(=O)CC(=O)O1
(A) inactive

(Q) Then O=[N+]([O-])c1ccc(C(c2ccccc2)c2ccccc2)cc1 ?
(A) inactive

(Q) Would you mind doing CNC(=S)NNC(=O)C1CC1 as well?
(A) inactive

(Q) How about Cc1nc2cncc(C#Cc3cncc(C(=O)Nc4ccc(CN5CCN(C)CC5)c(C(F)(F)F)c4)c3)c2nc1C ?
(A) active

(Q) Now consider CCc1ccc(-c2ccc(=O)n(-c3ccc(S(N)(=O)=O)cc3)n2)cc1 and answer again.
(A) active

Others:
(Q) What was the test verdict on C=C[C@@H]1C[C@@H]2Cc3ccccc3N1O2 ?
(A) inactive

(Q) Likewise for O=C(Nc1cccc(-n2cc(-c3ccncc3)c(-c3ccc(Cl)c(O)c3)n2)c1)Nc1cc(C(F)(F)F)cc(C(F)(F)F)c1 ?
(A) active

---

test system: SK-MEL-2 melanoma; test: NCI-60 one-dose screen, 48 h; settings: 10 µM unless noted
This is part of a sample that, as a whole, favours compounds with a hit. Of some 83,000 tested, about 20% had one in any assay. Active and inactive are the calls of the source. How the source made its calls: active means growth percent below 10; inactive means the rest.
In this exercise, the only acceptable responses are y for active, n for inactive

Solved entries:
(Q) // param item: COc1cc2c(cc1O)CCN1C[C@@H](CC(C)C)[C@@H](O)C[C@@H]21 ; yields the recorded call
(A) n

(Q) Continue with COc1ccc(/C=C(\C#N)c2cc(OC)c3c(c2)OCO3)cc1
(A) n

(Q) What about this compound? CC(C)(C)n1cc(-c2ccnc(NCCCNS(=O)(=O)c3ccc(Br)cc3)c2)c(-c2cccc(O)c2)n1
(A) n

(Q) Query N=C(N)c1ccc(-c2ccc(-c3cncc4ccccc34)s2)cc1F next
(A) y

(Q) Would you kindly repeat that for CC(C)c1ccc2occ(C=C3C(=O)NC(=O)NC3=O)c(=O)c2c1 ?
(A) n

More entries:
(Q) GET /call?item= COc1ccc(-c2nc(N3CCCC3=O)sc2Br)cc1OC returns the recorded outcome of this test.
(A) n

(Q) Here is the next compound: COc1ccc2[nH]c(=O)c3c4ccccc4cn3c2c1
(A) n

---

tested on: RXF 393 renal; assay: NCI-60 one-dose screen, 48 h (100 = growth as untreated, 0 = no growth, -100 = all killed); details: 10 µM unless noted
This is part of a sample that, as a whole, favours compounds with a hit. Of some 83,000 tested, about 20% had one in any assay.
reported_metric: growth (%)
# value in %; strip the unit string

(Q) Which growth is listed for COc1ccc(/C(C#N)=C/c2cc(OC)c(OC)c(OC)c2)cc1 ?
(A) 56.7

---

test system: DU-145 prostate; test: NCI-60 one-dose screen, 48 h (100 = growth as untreated, 0 = no growth, -100 = all killed); conditions: 10 µM unless noted
About 83,000 compounds went through this panel and 20% of them were active in at least one assay; those are over-represented in the sample as a whole.
reported_metric: growth (%)
Could you give me the number in %? Just the number is fine.

These solved cases illustrate the format of a correct answer.
(Q) Which growth is listed for CC(C)(C)n1cc(-c2ccnc(NCCCNS(=O)(=O)c3ccc(C(F)(F)F)cc3)c2)c(-c2cccc(O)c2)n1 ?
(A) 46.3

(Q) # iterate: O=C1/C(=C/c2ccc(Cl)cc2)CN(C(=O)CCN2CCC(=NO)CC2)C/C1=C\c1ccc(Cl)cc1
(A) -89.2

(Q) Now this one: CC(C)OC(=O)N1CCOCC1
(A) 104

(Q) Quick one: COc1ccc(-c2nc(/C=C3/C(=O)Nc4ccc(F)cc43)c3ccccn23)cc1
(A) 102

(Q) Please do the same for O=[N+]([O-])c1ccc(OCCCOc2ccccc2)cc1 as well.
(A) 108

(Q) Here is the next compound: O=c1cc/c(=N\Nc2ccccc2)c(=O)/c1=N/Nc1ccccc1
(A) 106

More entries:
(Q) May I ask what growth has been recorded for O=C(Nc1ccc2c(c1)OCO2)C(=O)c1c[nH]c2cc(F)ccc12 ?
(A) 34.5

(Q) And CC(=O)c1cc2c(N)c(C(=O)Nc3cccc4c3OCCO4)sc2nc1C ?
(A) 104

(Q) Next compound: N#C/C(=C1C=C/C(=N/O)C(Cl)=C/1)c1ccc(Cl)cc1
(A) 35.5

(Q) Check CN(C)c1nc2c(N)ncnc2n1C1OC(CO)C(O)C1O (stereo not given) too.
(A) 118

---

tested on: NCI-H226 lung; test: NCI-60 one-dose screen, 48 h; conditions: 10 µM unless noted
This is part of a sample that, as a whole, favours compounds with a hit. Of some 83,000 tested, about 20% had one in any assay. Active and inactive are the calls of the source. How the source made its calls: active means growth percent below 10; inactive means the rest.
Assign a class; possible classes are active, inactive

(Q) What did this assay record as the result for Cc1ccc(-c2cc3nc(-c4ccccc4)nc(C(Cl)Cl)n3n2)cc1 ?
(A) inactive

(Q) One more molecule: Cc1ccc(Cc2c(C=O)nc(N)[nH]c2=O)c2ccccc12
(A) inactive

Others:
(Q) Please indicate how the test categorized C/C=C(\C)C(C(=O)NC1CCCCC1)N(C(=O)C1CCc2cc(F)ccc2O1)c1ccc(Cl)cc1 (stereo not given) .
(A) inactive

(Q) Please do the same for NC1=C(/C(N)=N/O)C(c2ccccc2)c2ccc3ccccc3c2O1 (stereo not given) as well.
(A) active

(Q) Param item: COc1ccc2c(c1)C(c1cc(OC)c3c(c1)OCO3)C1=C(COC1=O)N2 (stereo not given)
(A) inactive

(Q) // next record CCCCCCCCN(CCCCCCCC)CCCCCCNc1cc(OC)cc2cccnc12
(A) inactive

(Q) Please answer likewise for CCCCNC(=O)Oc1ccc(/C(=C(\C)c2ccccc2)c2ccc(OCCN(CC)CC)cc2)cc1
(A) inactive

(Q) Same question for COc1cccc(-c2nc3sccn3c2-c2ccnc(NCCCNS(=O)(=O)c3ccc(C(F)(F)F)cc3)c2)c1 please.
(A) inactive

(Q) Follow-up entry: COc1ccc(-c2ccc(C)n2-c2ccc(-c3nc4ccccc4s3)cc2)cc1
(A) inactive

(Q) Check CC(C)(C)n1cc(-c2ccnc(NCCCNS(=O)(=O)c3ccc(Cl)cc3)c2)c(-c2cccc(O)c2)n1 too.
(A) inactive

---

system: MDA-MB-435 melanoma; assay: NCI-60 one-dose screen, 48 h (100 = growth as untreated, 0 = no growth, -100 = all killed); conditions: 10 µM unless noted
This is part of a sample that, as a whole, favours compounds with a hit. Of some 83,000 tested, about 20% had one in any assay. The source made the active and inactive calls. The calls were made as follows: active = growth percent below 10; inactive = the rest.
Each item that follows carries a reported growth.

Here is how some molecules turned out for growth.
(Q) If you can, please state the reported growth value of COc1cc([N+](=O)[O-])c2ncccc2c1O .
(A) 51.8% (inactive)

(Q) Would you kindly repeat that for O=C1NC(=C(Cl)Cl)/C(=N/S(=O)(=O)N2CCC(C3(C(F)(F)F)N=N3)CC2)N1 ?
(A) 70.7% (inactive)

(Q) How about this molecule: COc1ccc(S(=O)(=O)n2ccc(-c3ccc4c(c3)CCC(C)(C)O4)n2)cc1OC
(A) 79.6% (inactive)

(Q) How about this molecule: COc1ccc(-c2ccc(C)n2-c2ccc(-c3nc4ccccc4s3)cc2)cc1
(A) 89.6% (inactive)

(Q) Can you handle Cn1c(=O)c2[nH]c(C3CC=CCC3)nc2n(C)c1=O (centres undefined) next?
(A) 106% (inactive)

(Q) Also need O=C(O)c1cn(C2CC2)c2cc(N3CCN(C(=O)/C=C/c4ccc(Cl)cc4)CC3)c(F)cc2c1=O , thanks.
(A) 82.5% (inactive)

---
(Q) // lookup growth for N/C(=N\S(=O)(=O)c1ccccc1)Nc1nc2ccccc2s1
(A) 101% (inactive)

(Q) And Cc1nc2c3c(ncn2n1)Oc1c(c(=O)[nH]c2ccccc12)C3c1ccc(Cl)cc1 (centres undefined) ?
(A) 102% (inactive)

(Q) What do you have for CN(C[C@H]1Cc2c(cccc2N2CCN(Cc3ccccn3)CC2)CN1)[C@H]1CCCc2cccnc21 ?
(A) 69.6% (inactive)

# credit: PubChem BioAssay (NCI)
